- Study system: Neu5Gc(a2-3)Gal(b1-4)Glc
- Assay method text: glycan array binding signal (z-score within array); higher = stronger binding
- Assay context: glycan notation: IUPAC condensed, linker removed
This excerpt belongs to a sample that is enriched for the strongest signals.
Observation type: glycan array binding signal (z-score)
Numbers only.

Entry SynCAM (Mus musculus) (protein) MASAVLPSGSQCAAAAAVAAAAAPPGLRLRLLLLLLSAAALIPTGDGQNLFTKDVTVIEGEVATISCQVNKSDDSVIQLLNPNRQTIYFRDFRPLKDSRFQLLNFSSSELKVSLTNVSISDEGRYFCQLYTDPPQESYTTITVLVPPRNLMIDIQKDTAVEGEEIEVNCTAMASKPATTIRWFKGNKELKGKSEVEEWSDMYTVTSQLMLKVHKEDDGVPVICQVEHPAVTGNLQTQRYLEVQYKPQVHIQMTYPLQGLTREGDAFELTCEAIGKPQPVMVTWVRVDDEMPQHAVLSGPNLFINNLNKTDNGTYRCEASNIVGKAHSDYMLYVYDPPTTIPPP ; glycan array binding signal (z-score) = -0.801
